Numbers sourced from paper PMC10820097.

Target: BChE (EC 3.1.1.8) (Equus caballus, UniProt P81908)
Construct: BChE (EC 3.1.1.8, from equine serum); purchased Aladdin Industrial Co., Ltd. (Shanghai, China); host or cells: equine serum (natural source)
Sequence (P81908 whole entry): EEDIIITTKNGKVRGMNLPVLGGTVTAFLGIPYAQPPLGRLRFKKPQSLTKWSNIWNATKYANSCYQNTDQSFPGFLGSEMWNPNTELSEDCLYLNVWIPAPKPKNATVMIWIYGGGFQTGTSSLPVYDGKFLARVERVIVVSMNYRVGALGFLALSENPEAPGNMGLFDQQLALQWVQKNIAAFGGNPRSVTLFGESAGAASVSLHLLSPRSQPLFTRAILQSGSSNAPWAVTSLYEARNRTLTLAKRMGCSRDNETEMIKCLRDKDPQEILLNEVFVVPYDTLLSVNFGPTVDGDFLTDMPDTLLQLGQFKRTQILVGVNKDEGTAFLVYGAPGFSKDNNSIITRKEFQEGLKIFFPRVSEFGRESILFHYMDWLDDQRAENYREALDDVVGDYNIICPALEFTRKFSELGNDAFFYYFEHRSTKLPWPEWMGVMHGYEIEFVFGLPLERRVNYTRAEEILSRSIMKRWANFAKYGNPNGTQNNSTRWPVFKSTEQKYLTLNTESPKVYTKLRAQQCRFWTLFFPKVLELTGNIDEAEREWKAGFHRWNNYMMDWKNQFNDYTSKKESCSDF
Test: BChE inhibitory activity assay (modified Ellman's method)
Assay type: biochemical
Settings: sample concentration that led to 50% enzyme activity loss; mean ± SD, triplicate; read-out: IC50 BChE
Each entry below lists one item and its recorded pIC50 value.
Formally, pIC50 is defined as -log10 of the concentration c, with c in mol/L.

Look over these answered cases.
# compound, pIC50
records = [
    ("CC(C)=CCc1c(O)cc2c(c1-c1cc3ccc(O)cc3o1)C=CC(C)(C)O2 [Compound 14, cathafuran C]", 5.59),
    ("COc1cc(O)c(CC=C(C)C)c(-c2cc3ccc(O)cc3o2)c1CC=C(C)C [Compound 16, mulberrofuran N]", 4.48),
]

stdin: What value of pIC50 has been recorded for this entry: CC(C)=CCc1c(O)cc(O)c(CC=C(C)C)c1-c1cc2ccc(O)cc2o1 [Compound 15, mulberrofuran V]
stdout: 4.57

stdin: What value of pIC50 has been recorded for this entry: CCOC(=O)C(CC=C(C)C)c1ccc(O)cc1O (stereo not drawn) [Compound 4]
stdout: 4.21

stdin: What value of pIC50 has been recorded for this entry: CC(C)=CCc1c(O)cc(-c2cc3ccc(O)cc3o2)cc1O [Compound 8, moracin C]
stdout: 4.55

stdin: What value of pIC50 has been recorded for this entry: CC(C)=CCc1cc2cc(-c3cc(O)cc(O)c3)oc2cc1O [Compound 11, moracin N]
stdout: 4.87

stdin: What value of pIC50 has been recorded for this entry: CC(C)=C/C=C1\C(=O)Oc2cc(O)ccc21 [Compound 1]
stdout: 4.34
